TEST: yeast display, Sf9 membrane polyspecificity reagent, FACS + sequencing; frameworks hold sequencing errors
ASSAY METRIC: polyreactivity (PSR sort gate)

Answered examples (6):
1) QVQLVESGGVLVQAGGSLRLSCAASGSTFGANAMGWNREAPGKEREFVAAISGSGTTTYYADSVKGRFTISRDNAKNSVYLHLNSLKQEDTAVYYCAKTRKAHWLEYWGQGTKVTVSS | low polyreactivity
2) QVQLVESGGGLVQAGGSLRLSCAASGITFYGYAMGWYRQAPGKERELVAAITSGGSTYYADSVKGRFTISRDNAKNTVYLQMNSLKPEDTAVYYCARYYWIRVGRYYRYEYWGQGTQVTVSS | low polyreactivity
3) QVQLVESGGVLVQAGGSLRLTCAASGSTFLYNAMGWYRQAPGKEREFVAAISGSGGTTYYADSVKGRFTISRDNAKNTVYLQMNSLKPEDTAVYYCAVSQSWYWYYASDYWGQGTQVTVSS | low polyreactivity
4) QVQLVKSGGGLVQAGGSLRLSCAASGSTFYNAMGWYRQAPGKERELVAAISIGGSTYYADSVKGRFTISRDNAKNTVYLQMNSLKPEDTAVYYCAAVWYTSRQKYDYWGHGTQVTVSS | low polyreactivity
5) PVQLVESGGGLVQAGGSLRLSCAACGGIFPGNAMGWYRQAPGKVRELVATISYSGGSTYYADSVKGRLTISRDNAKNTVYLQMNSLKPEATAVYYCAARGYKPTRSRRTEYGYWGQGTQVTVSS | high polyreactivity
6) QVQLVESGGGLVQAGGSLRLSCAASGFTFDVNAMGWYRQAPGKERELVATISSNGGSTYYADSVKGRFTISRDNAKNTVYLQMNSLKPEDTAVYYCAADVYRLLRRYRYYYWGQGTQVTVSS | low polyreactivity

May I ask what polyreactivity (PSR sort gate) has been recorded for "QVQLVESGGRLVQAGGSLRLSCAASGRTFSTNVMGRYRQAPGKVRELVAAITTSSSRTYYADSVKGRFTISRDNAKNTVYLQMNSLKPEDTAVYYCAAGIHGSWSFDYWGQGTQVTLSS" ?
low polyreactivity

May I ask what polyreactivity (PSR sort gate) has been recorded for "QVQLVESGGGLVQAGGSLRISCAASGSIFGYYAMGWYRQAPGKERELVAAITRSGGSTYYADSVKGRFTISRDNAKNTVYLQMNSLKPEDTAVYYCAAYYGHLYYTFDYWGQGTQVTVSS" ?
low polyreactivity

May I ask what polyreactivity (PSR sort gate) has been recorded for "QVQLVESGGGLVQAGGSLRLSCAASGRIFYSNAMGWYRQAPGKERELVAAISGSTDSTYYADSVKGRFTISRDNAKNTVYLQMNSLKPEDTAVYYCAAADYWFYYGYYLTMDYWGQGTQVTVSS" ?
low polyreactivity

May I ask what polyreactivity (PSR sort gate) has been recorded for "QVQLVETGGGLVQAGGSLRLSCAASGITSRPYVMGWYRQAPGKERELVAAISLTGGRTYYADSVKGRFTISRDNAKNTVYLQMNSPKPEDTAVYYCAAARSPYKYSYWGQGTQVTVSS" ?
high polyreactivity

May I ask what polyreactivity (PSR sort gate) has been recorded for "QVQLVESGGGLVQAGGSLRLSCAASGFTFDSYDMGWYRQAPGKERELVAAITWSGGSTYYADSVKGRFTISRDNAKNTVYLQMYSLKPEDTAVYYCKADTGTYWVPWYHDGYDYWGEGTQVTVSS" ?
low polyreactivity
